The entries below are paired with their reported Pf_120h_%Growth_Rep2.
Test system: P. falciparum 3D7 parasites
testName: P. falciparum growth inhibition assay, 2-cycle (120 h treatment), delayed-death screen and dose-response
Format: cell-based, Plasmodium falciparum
conditionParameters: library screen at 2 μg/mL, 120 h, % growth, replicate 2
*1 amine or outer side, *2 acyl side, *3 side chain or, on linkers, in order; H or OH if unused. Where a SMILES comes first, the peptide text is derived from it. Bridges are numbered along the chain shown (N, C = ends). [ ]: non-standard residue; d: D form. The star is where a group is joined. hTyr(3S-OH,4S-OH,3'-OSO3H) = N[C@H](C(=O)O)[C@H](O)[C@@H](O)c1ccc(O)c(OS(=O)(=O)O)c1; Orn(4R-OH,5R-OH) = O=C([C@H](C[C@@H](O)[C@@H](O)N[*:3])N[*:1])[*:2]; Pro(3S-OH,4S-Me) = C[C@H]1CN[C@H](C(=O)O)[C@H]1O; Gln(3R-OH) = NC(=O)C[C@@H](O)[C@H](N)C(=O)O; Palmitoyl = CCCCCCCCCCCCCCCC(=O)*; Hyp = O=C(O)[C@@H]1C[C@@H](O)CN1
Value expressed in %; do not type the unit.

• CC(C)=C[C@H]1C[C@H](C)[C@]2(CC[C@]3(C)C[C@@H]4C(C)=CC(=O)[C@H]4/C(C=O)=C\C[C@H]32)O1 [Anhydroepiophiobolin A] = 6.51
• CC[C@H]1OC(=O)[C@H](C)[C@@H](O[C@H]2C[C@@](C)(OC)[C@@H](O)[C@H](C)O2)[C@H](C)[C@@H](O[C@@H]2O[C@H](C)C[C@H](N(C)C)[C@H]2O)[C@](C)(O)C[C@@H](C)C(=O)[C@H](C)[C@@H](O)[C@]1(C)O = 89.66
• CC(=O)N[C@H]1CCOC1=O = 5.45
• COC1/C=C\C=C(/C)C(=O)NC2=CC(=O)C(NCCN(C)C)=C(C[C@@H](C)C[C@H](OC)[C@H](O)[C@@H](C)/C=C(\C)[C@@H]1OC(N)=O)C2=O (stereo partly drawn) = 2.04
• Cc1c2c(c(O)c3c(O)cccc13)C(=O)O[C@@H]2[C@H]1[C@H](N(C)C)C(O)=C(C(N)=O)C(=O)[C@@H]1O = 97.44
• O=C(O)C1CSC(c2ccccc2O)=N1 (stereo not drawn) [Dihydroaeruginoic acid] = 57.05
• CCCCCCCCCCCCCCCC(=O)N[C@H]1C[C@@H](O)[C@@H](O)NC(=O)[C@@H]2[C@@H](O)[C@@H](C)CN2C(=O)[C@H]([C@H](O)CC(N)=O)NC(=O)[C@H]([C@H](O)[C@@H](O)c2ccc(O)c(OS(=O)(=O)O)c2)NC(=O)[C@@H]2C[C@@H](O)CN2C(=O)[C@H]([C@@H](C)O)NC1=O [FR 901379] (Palmitoyl-[Orn(4R-OH,5R-OH)]T[Hyp][hTyr(3S-OH,4S-OH,3'-OSO3H)][Gln(3R-OH)][Pro(3S-OH,4S-Me)]; lactam 1-C) = 99.58
• CC[C@H](C)[C@H]1O[C@]2(C=C[C@@H]1C)C[C@@H]1C[C@@H](C/C=C(\C)[C@@H](O[C@H]3C[C@H](OC)[C@@H](O)[C@H](C)O3)[C@@H](C)/C=C/C=C3\CO[C@@H]4[C@H](O)C(C)=C[C@@H](C(=O)O1)[C@]34O)O2 [Avermectin B1a monosaccharide] = 20.49

Proceed to the following item.
QUERY: Quick check: Pf_120h_%Growth_Rep2 of C=CCNC1=C2C[C@@H](C)C[C@H](OC)[C@H](O)[C@@H](C)/C=C(\C)[C@H](OC(N)=O)[C@@H](OC)/C=C\C=C(/C)C(=O)NC(=CC1=O)C2=O ?
RESULT: 7.18
